Attribution: the supplement of paper PMC10724198

Reported protein stability index values for the following sequences.
System: Saccharomyces cerevisiae;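 note: PSI is a weighted mean of sequencing reads over stability bins, variants kept only with over 10 reads, mCherry proximal and sfGFP distal, peptide attached via GGGS linker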
Experiment: protein stability index of tFT-peptide fusion (C-terminal peptide) (PSI (0-1 scale)); higher = more stable (slower turnover)
Settings: genetic background: wild type; temperature: 30 C
Property label: protein stability index

>>> recorded_value("PEYGSGCNCLGS")
0.664
>>> recorded_value("LVIGTTLSSLML")
0.742
>>> recorded_value("GKRYEKVGVEWW")
0.765
>>> recorded_value("FLQAKSQGEHFR")
0.694
>>> recorded_value("MGYNSRHLDISM")
0.677
>>> recorded_value("GGGCERGVGLLG")
0.626
>>> recorded_value("LDINWVGGAPEV")
0.727
>>> recorded_value("QGRPPADRATAV")
0.755
>>> recorded_value("GGGLAPADQVGV")
0.729
>>> recorded_value("VWAREGLGLRPP")
0.673
>>> recorded_value("GGGGGVRLVVSR")
0.668
>>> recorded_value("VDVPAGPGGGAC")
0.641
